test_protocol: Inhibitory activity against aggrecanase was determined
measured_metric: IC50 (nM)

O=C(C[C@@H](Cc1ccc(-c2ccccc2)cc1)C(=O)N[C@H]1c2ccccc2C[C@H]1O)NO; 9.8
CS(=O)(=O)Nc1cccc(-c2ccc(C[C@H](CC(=O)NO)C(=O)N[C@H]3c4ccccc4C[C@H]3O)cc2)c1; 1.5
Cc1cccc(-c2ccc(C[C@H](CC(=O)NO)C(=O)N[C@H]3c4ccccc4C[C@H]3O)cc2)c1; 11.5
O=C(C[C@@H](Cc1ccc(-c2ccc3c(c2)OCO3)cc1)C(=O)N[C@H]1c2ccccc2C[C@H]1O)NO; 1.5
O=C(C[C@@H](Cc1ccc(-c2ccccc2-c2nn[nH]n2)cc1)C(=O)N[C@H]1c2ccccc2C[C@H]1O)NO; 239
Cc1ccccc1-c1ccc(C[C@H](CC(=O)NO)C(=O)N[C@H]2c3ccccc3C[C@H]2O)cc1; 11.6
O=C(C[C@@H](Cc1ccc(-c2cccc([N+](=O)[O-])c2)cc1)C(=O)N[C@H]1c2ccccc2C[C@H]1O)NO; 5.5
CC(C)c1cccc(-c2ccc(C[C@H](CC(=O)NO)C(=O)N[C@H]3c4ccccc4C[C@H]3O)cc2)c1; 216
COc1cccc(-c2ccc(C[C@H](CC(=O)NO)C(=O)N[C@H]3c4ccccc4C[C@H]3O)cc2)c1; 3.7
O=C(C[C@@H](Cc1ccc(-c2ccccc2CO)cc1)C(=O)N[C@H]1c2ccccc2C[C@H]1O)NO; 144

###

test_protocol: Inhibitory activity against aggrecanase was determined
pIC50: −log10 of the molar value.
measured_metric: pIC50

O=C(C[C@@H](Cc1ccc(-c2cccc(F)c2)cc1)C(=O)N[C@H]1c2ccccc2C[C@H]1O)NO; 8.70
O=C(C[C@@H](Cc1ccc(-c2ccccc2Cl)cc1)C(=O)N[C@H]1c2ccccc2C[C@H]1O)NO; 7.49
COc1ccccc1-c1ccc(C[C@H](CC(=O)NO)C(=O)N[C@H]2c3ccccc3C[C@H]2O)cc1; 8.47
O=C(C[C@@H](Cc1cccc(O)c1)C(=O)N[C@H]1c2ccccc2C[C@H]1O)NO; 7.19

###

target_desc: Interstitial collagenase (Homo sapiens, UniProt P03956)
Sequence (P03956 whole entry): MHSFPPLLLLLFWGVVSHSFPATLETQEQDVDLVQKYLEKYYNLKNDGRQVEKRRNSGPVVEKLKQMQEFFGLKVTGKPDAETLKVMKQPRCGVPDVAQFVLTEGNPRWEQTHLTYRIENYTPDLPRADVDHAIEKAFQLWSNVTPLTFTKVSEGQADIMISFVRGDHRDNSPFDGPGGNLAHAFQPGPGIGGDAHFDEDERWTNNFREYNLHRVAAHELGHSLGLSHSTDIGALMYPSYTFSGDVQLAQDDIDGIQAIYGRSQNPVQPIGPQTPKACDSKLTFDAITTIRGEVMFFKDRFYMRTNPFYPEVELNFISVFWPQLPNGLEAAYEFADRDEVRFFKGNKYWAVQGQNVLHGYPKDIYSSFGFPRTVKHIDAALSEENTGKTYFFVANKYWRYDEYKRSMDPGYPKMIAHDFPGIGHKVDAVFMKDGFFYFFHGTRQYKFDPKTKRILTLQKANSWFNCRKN
test_protocol: Binding affinity for interstitial collagenase (MMP-1)
measured_metric: Ki

COc1cccc(-c2ccc(C[C@H](CC(=O)NO)C(=O)N[C@H]3c4ccccc4C[C@H]3O)cc2)c1; > 5 µM
O=C(C[C@@H](Cc1ccc(-c2ccccc2)cc1)C(=O)N[C@H]1c2ccccc2C[C@H]1O)NO; > 5 µM
O=C(C[C@@H](Cc1ccc(-c2ccccc2CO)cc1)C(=O)N[C@H]1c2ccccc2C[C@H]1O)NO; > 5 µM
Cc1ccccc1-c1ccc(C[C@H](CC(=O)NO)C(=O)N[C@H]2c3ccccc3C[C@H]2O)cc1; 4.11 µM
O=C(C[C@@H](Cc1ccc(-c2ccccc2Cl)cc1)C(=O)N[C@H]1c2ccccc2C[C@H]1O)NO; > 5 µM
O=C(C[C@@H](Cc1ccc(-c2ccc3c(c2)OCO3)cc1)C(=O)N[C@H]1c2ccccc2C[C@H]1O)NO; 12.8 µM
Cc1cccc(-c2ccc(C[C@H](CC(=O)NO)C(=O)N[C@H]3c4ccccc4C[C@H]3O)cc2)c1; > 5 µM
O=C(C[C@@H](Cc1ccc(-c2ccccc2-c2nn[nH]n2)cc1)C(=O)N[C@H]1c2ccccc2C[C@H]1O)NO; > 5 µM

###

target_desc: UniProt:P08253
Sequence (P08253 whole entry): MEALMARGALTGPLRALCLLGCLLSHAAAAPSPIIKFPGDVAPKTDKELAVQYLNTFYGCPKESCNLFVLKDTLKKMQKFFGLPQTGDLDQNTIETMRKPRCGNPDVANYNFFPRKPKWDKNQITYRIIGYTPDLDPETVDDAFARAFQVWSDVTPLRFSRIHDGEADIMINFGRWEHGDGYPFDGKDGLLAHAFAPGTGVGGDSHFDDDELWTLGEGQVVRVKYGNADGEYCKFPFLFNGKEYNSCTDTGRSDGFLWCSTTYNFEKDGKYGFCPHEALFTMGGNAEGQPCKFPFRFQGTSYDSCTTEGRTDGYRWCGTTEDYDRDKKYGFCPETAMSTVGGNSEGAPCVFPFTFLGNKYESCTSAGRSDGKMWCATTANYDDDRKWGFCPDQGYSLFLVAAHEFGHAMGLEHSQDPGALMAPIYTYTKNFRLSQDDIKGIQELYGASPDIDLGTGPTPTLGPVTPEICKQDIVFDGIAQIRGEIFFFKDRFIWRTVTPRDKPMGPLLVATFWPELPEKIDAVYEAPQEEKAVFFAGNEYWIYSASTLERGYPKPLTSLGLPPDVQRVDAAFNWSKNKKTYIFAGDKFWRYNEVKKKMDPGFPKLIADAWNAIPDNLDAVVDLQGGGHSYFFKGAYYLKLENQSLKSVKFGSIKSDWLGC
pKi: −log10 of the molar value.
measured_metric: pKi

O=C(C[C@@H](Cc1ccc(-c2ccc3c(c2)OCO3)cc1)C(=O)N[C@H]1c2ccccc2C[C@H]1O)NO; 7.37

###

# Matrix metalloproteinase-9 (Homo sapiens): Ki values follow
# Sequence (P14780 whole entry): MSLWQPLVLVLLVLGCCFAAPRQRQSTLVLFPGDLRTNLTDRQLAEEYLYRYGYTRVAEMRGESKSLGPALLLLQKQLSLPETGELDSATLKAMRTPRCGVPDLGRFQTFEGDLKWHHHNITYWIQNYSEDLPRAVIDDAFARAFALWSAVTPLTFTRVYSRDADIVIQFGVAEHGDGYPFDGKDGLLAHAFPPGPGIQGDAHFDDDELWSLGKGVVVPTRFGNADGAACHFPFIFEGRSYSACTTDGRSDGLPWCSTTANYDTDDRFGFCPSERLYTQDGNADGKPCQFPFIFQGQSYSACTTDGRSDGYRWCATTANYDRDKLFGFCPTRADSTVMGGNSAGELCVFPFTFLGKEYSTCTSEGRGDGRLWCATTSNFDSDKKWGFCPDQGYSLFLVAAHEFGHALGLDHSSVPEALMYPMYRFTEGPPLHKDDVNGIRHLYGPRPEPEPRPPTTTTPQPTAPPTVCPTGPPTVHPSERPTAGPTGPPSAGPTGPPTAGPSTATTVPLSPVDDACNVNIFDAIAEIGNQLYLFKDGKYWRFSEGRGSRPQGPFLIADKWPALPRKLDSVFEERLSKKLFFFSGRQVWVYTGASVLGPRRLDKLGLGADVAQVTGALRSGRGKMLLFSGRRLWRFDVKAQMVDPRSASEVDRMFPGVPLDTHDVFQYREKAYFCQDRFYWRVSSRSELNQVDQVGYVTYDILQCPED
measured_metric: Ki (nM)

O=C(C[C@@H](Cc1ccc(-c2ccccc2Cl)cc1)C(=O)N[C@H]1c2ccccc2C[C@H]1O)NO; 150
Cc1ccccc1-c1ccc(C[C@H](CC(=O)NO)C(=O)N[C@H]2c3ccccc3C[C@H]2O)cc1; 4.2
Cc1cccc(-c2ccc(C[C@H](CC(=O)NO)C(=O)N[C@H]3c4ccccc4C[C@H]3O)cc2)c1; 1080
